# measured target: 5-HT2C receptor (Homo sapiens)
# Construct: expressed in transfected cells; host or cells: HEK 293T, stably transfected
# Sequence (P28335 33-458): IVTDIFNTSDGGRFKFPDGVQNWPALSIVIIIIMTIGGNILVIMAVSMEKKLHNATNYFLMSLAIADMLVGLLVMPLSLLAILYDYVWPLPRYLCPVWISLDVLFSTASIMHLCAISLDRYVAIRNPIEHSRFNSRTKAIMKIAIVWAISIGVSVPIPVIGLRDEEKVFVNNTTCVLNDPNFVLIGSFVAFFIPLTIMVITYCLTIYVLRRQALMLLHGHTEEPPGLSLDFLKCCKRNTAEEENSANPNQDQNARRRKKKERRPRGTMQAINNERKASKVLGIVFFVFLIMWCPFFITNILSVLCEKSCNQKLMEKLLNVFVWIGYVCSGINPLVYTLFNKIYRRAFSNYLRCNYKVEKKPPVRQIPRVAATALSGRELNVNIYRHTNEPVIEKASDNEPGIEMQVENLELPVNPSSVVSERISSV
# measurement notes: Ca2+ mobilization assay (Fluo-4, FLIPR), HEK 293T cells stably transfected with 5-HT2C
# Assay type: cell-based
attribute measured: IC50

Enquiry: Reported IC50 for COc1ccc2c(c1OC)C[C@@H]1c3c(cc4c(c3-2)OCO4)CCN1C [Compound 1, (–)-crebanine] : what is it?
Return: 149 nM

====

Task for the reader: assign each of the following compounds its reported thermal shift value (∆Tm).
# measured target: 5-HT2C receptor (Homo sapiens, UniProt P28335, DEL255-298/G251D/H250E/H252N/INS299[…]/L248D/M247A/M300L/T253W)
# Construct: the N- and C-terminals were truncated by 39 and 65 residues, respectively; FLAG (N); PreScission protease site + 10× His (C); made in house; host or cells: Spodoptera frugiperda (Sf9), baculovirus
# Type: binding
# protocol conditions: CPM assay, comparing to apo-protein

Enquiry: Reported thermal shift value (∆Tm) for COc1cc2c(cc1OC)-c1c3c(cc4c1[C@@H](C2)N(C)CC4)OCO3 [Compound 2, (–)-dicentrine] : what is it?
Return: < 1.00 °C

Enquiry: Same thing, different compound: COc1cc2cc3c4c(cc(OC)c(OC)c4c2cc1OC)CCN3C [Compound 4, didehydroglaucine]
Return: < 1.00 °C

Enquiry: Same thing, different compound: COc1ccc2c(c1OC)C[C@@H]1c3c(cc4c(c3-2)OCO4)CCN1C [Compound 1, (–)-crebanine]
Return: 9.25 °C

Enquiry: Same thing, different compound: COc1ccc2c(c1O)-c1c(O)c(OC)cc3c1[C@H](C2)[N+](C)(C)CC3 [Compound 3, (+)-magnoflorine]
Return: < 1.00 °C

====

# measured target: 5-HT2B receptor (Homo sapiens, UniProt P41595)
# Sequence (P41595 whole entry): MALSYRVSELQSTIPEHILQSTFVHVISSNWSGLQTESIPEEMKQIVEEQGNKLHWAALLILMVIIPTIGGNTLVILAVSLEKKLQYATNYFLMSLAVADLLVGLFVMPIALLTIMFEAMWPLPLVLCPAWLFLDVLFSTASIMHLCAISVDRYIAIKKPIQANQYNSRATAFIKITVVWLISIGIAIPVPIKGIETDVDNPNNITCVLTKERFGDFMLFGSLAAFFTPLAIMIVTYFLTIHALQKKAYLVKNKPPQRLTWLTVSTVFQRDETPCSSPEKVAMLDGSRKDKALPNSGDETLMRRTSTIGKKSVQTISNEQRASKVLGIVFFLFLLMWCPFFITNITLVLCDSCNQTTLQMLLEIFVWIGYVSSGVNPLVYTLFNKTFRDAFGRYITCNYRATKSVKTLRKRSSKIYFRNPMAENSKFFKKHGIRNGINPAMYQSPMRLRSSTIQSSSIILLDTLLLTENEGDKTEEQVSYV
# measurement notes: Ca2+ mobilization assay (Fluo-4, FLIPR), HEK 293T cells stably transfected with 5-HT2B
attribute measured: pIC50
Please keep in mind that pIC50 is minus log10 of the molar concentration; only the number is needed.

Enquiry: Reported pIC50 for COc1ccc2c(c1OC)C[C@@H]1c3c(cc4c(c3-2)OCO4)CCN1C : what is it?
Return: 5.77

====

# measured target: 5-HT2C receptor (Homo sapiens, UniProt P28335)
# Sequence (P28335 33-458): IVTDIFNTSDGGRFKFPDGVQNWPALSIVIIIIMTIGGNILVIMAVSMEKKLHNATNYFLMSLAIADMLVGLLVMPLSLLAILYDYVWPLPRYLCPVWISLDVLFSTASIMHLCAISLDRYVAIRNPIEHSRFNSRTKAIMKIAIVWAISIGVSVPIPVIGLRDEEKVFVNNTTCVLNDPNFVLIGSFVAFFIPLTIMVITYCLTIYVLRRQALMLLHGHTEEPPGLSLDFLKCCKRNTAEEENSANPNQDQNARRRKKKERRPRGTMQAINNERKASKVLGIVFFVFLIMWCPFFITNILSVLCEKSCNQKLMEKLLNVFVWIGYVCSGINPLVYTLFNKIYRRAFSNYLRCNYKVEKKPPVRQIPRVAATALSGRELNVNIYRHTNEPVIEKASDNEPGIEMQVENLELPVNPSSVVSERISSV
# measurement notes: Ca2+ mobilization assay (Fluo-4, FLIPR), HEK 293T cells stably transfected with 5-HT2C
attribute measured: pEC50
Please keep in mind that pEC50 is minus log10 of the molar concentration; only the number is needed.

Enquiry: Reported pEC50 for COc1ccc2c(c1O)-c1c(OC)c(OC)cc3c1[C@H](C2)N(C)CC3 [Compound 5, (+)-isocorydine] : what is it?
Return: 5.68
